The values you see were collected from ChEMBL document CHEMBL4382285.

study target: Potassium voltage-gated channel subfamily KQT member 4 (Homo sapiens, UniProt P56696)
Sequence (P56696 whole entry): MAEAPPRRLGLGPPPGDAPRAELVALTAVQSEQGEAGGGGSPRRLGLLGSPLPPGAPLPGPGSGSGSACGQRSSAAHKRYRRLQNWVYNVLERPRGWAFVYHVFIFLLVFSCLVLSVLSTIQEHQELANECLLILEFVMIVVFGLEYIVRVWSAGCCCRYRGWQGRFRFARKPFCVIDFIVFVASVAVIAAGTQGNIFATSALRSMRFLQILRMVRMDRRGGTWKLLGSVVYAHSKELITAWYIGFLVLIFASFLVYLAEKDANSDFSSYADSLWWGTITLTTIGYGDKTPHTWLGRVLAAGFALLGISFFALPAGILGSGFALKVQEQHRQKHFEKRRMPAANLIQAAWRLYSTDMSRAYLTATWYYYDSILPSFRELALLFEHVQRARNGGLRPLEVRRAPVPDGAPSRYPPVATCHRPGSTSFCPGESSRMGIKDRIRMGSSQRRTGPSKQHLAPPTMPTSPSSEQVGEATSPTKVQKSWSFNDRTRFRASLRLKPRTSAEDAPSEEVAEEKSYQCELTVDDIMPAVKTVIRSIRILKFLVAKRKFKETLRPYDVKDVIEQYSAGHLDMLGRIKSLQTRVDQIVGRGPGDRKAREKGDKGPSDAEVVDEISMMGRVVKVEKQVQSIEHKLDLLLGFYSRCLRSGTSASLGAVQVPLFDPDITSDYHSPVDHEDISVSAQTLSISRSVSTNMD
experiment summary: Agonist activity at human KCNQ4 expressed in CHOK1 cells by whole cell patch clamp assay
Format: cell-based
Below, each entry is listed alongside its reported pEC50.
Scale explanation: pEC50 corresponds to minus log10 of a concentration expressed in moles per litre.

Reference set, count: 3
C#CCN(Cc1ccc(F)cc1)c1ccc(NC(=O)OC(C)(C)C)c(NC(=O)OCC)c1: 5.85
CCOC(=O)Nc1ccc(NCc2ccc(F)cc2)cc1N: 5.23
C#CCN(Cc1ccc(F)cc1)c1ccc(NC(=O)OCC)c(NC(=O)OC(C)(C)C)c1: 6.11

Entry under test: C#CCN(Cc1ccc(F)cc1)c1ccc(NC(=O)OC(C)(C)C)c(NC(=O)OC(C)(C)C)c1 . Its pEC50 was 5.69
